Just for reference, ChEMBL document CHEMBL3352205 is where these values come from.

Here the recorded IC50 is given for each entry.
biological target: Amine oxidase [flavin-containing] B (Homo sapiens); test: biochemical
Sequence (P27338 whole entry): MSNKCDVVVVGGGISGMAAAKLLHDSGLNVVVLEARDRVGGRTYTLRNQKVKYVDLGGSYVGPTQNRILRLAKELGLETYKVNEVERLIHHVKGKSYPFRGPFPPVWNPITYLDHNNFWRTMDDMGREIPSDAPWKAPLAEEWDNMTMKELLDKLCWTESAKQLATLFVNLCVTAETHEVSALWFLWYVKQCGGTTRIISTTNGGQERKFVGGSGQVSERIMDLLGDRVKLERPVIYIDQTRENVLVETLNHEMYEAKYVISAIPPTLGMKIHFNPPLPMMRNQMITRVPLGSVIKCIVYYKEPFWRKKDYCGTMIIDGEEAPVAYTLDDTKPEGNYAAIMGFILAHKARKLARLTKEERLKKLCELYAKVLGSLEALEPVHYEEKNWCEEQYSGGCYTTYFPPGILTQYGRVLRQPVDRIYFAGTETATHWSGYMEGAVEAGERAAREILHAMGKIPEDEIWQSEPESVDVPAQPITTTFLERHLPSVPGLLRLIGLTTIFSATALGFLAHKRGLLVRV
Description: Inhibition of human recombinant MAO-B expressed in baculovirus-infected insect cells using p-tyraimne substrate
Hi! Could you send only the number? It should be in nM, unit omitted.

Request: What value of IC50 has been recorded for this entry: `O=C(Cc1ccc(Cl)c(Cl)c1)Nc1ccc2[nH]ncc2c1`
Response: 882

Request: Quick check: IC50 of `O=C(Nc1ccc(Cl)c(Cl)c1)c1ccc2nccn2c1` ?
Response: 141

Request: Please give the measured IC50 for this molecule: `O=[N+]([O-])c1ccc2[nH]ncc2c1`
Response: 2500

Request: Tell me the measured IC50 of `O=C(Nc1ccccc1)c1ccc2[nH]ncc2c1` , please.
Response: 117

---
Request: IC50 lookup needed for `O=C(Nc1ccc(Cl)c(O)c1)c1ccc2cn[nH]c2c1` , thanks.
Response: 6220

Request: Suppose we examine the molecule `COc1cc(NC(=O)c2ccc3cn[nH]c3c2)ccc1Cl` ; what IC50 value has been reported?
Response: 2760

Request: Report IC50 for `O=C(Nc1ccc(F)c(Cl)c1)c1ccc2cn[nH]c2c1` please.
Response: 234

Request: Query (molecule): `O=C(Nc1ccc(F)c(F)c1)c1ccc2cn[nH]c2c1` ; field requested: IC50
Response: 1300

Request: Could you tell me which IC50 is on file for `O=C(Nc1ccc(Cl)c(Cl)c1)c1ccc2cn[nH]c2c1` ?
Response: 67.1

Request: # query: IC50 of entry `Cn1ccc2cc(C(=O)Nc3ccc(Cl)c(Cl)c3)ccc21`
Response: 2.26

Request: Dear colleague, I am looking for the recorded IC50 of the following molecule: `O=C(Nc1ccc2[nH]ncc2c1)c1c(F)cccc1Cl`
Response: 3300
